EXPERIMENTAL TARGET: UniProt:P49684
Sequence (whole entry): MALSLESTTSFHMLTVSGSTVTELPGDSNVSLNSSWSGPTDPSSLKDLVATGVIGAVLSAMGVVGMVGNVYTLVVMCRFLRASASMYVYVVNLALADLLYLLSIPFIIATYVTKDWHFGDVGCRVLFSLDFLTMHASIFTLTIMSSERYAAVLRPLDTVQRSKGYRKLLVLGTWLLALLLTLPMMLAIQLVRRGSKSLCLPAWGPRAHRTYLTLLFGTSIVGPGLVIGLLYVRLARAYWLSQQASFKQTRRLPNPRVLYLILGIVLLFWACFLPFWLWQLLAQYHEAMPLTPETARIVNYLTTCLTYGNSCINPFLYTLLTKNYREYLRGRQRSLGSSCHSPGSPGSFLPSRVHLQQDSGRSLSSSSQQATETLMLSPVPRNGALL
PROTOCOL DESCRIPTION: Agonist activity at urotensin-2 receptor in Sprague-Dawley rat aortic rings assessed as KCl-induced vasoconstriction at 3 X 10^-11 to 3 X 10^-6 M relative to control
Activity calls are given as the source filed them. No cut-off for these calls is given here.
ASSAY READOUT: Emax

>  <RECORD SMILES>
CC(C)[C@H](NC(=O)[C@@H]1CSSC[C@H](NC(=O)[C@H](C)N)C(=O)N[C@@H](Cc2ccccc2)C(=O)N[C@@H](c2ccccc2)C(=O)N[C@@H](CCCCN)C(=O)N[C@@H](Cc2ccc(O)cc2)C(=O)N1)C(=O)O

>  <Emax>
102%

$$$$
>  <RECORD SMILES>
CC(C)[C@H](NC(=O)[C@@H]1CSSC[C@H](NC(=O)[C@H](C)N)C(=O)N[C@@H](Cc2ccccc2)C(=O)N[C@@H](C(C)(C)C)C(=O)N[C@@H](CCCCN)C(=O)N[C@@H](Cc2ccc(O)cc2)C(=O)N1)C(=O)O

>  <Emax>
inactive

$$$$
>  <RECORD SMILES>
CC(C)[C@H](NC(=O)[C@@H]1CSSC[C@H](NC(=O)[C@H](C)N)C(=O)N[C@@H](Cc2ccccc2)C(=O)N[C@H]2Cc3c([nH]c4ccccc34)CN(C2=O)[C@@H](CCCCN)C(=O)N[C@@H](Cc2ccc(O)cc2)C(=O)N1)C(=O)O

>  <Emax>
51%

$$$$
>  <RECORD SMILES>
CC(C)[C@H](NC(=O)[C@@H]1CSSC[C@H](NC(=O)[C@H](C)N)C(=O)N[C@@H](Cc2ccccc2)C(=O)N2CCc3ccccc3[C@H]2C(=O)N[C@@H](CCCCN)C(=O)N[C@@H](Cc2ccc(O)cc2)C(=O)N1)C(=O)O

>  <Emax>
126%

$$$$
>  <RECORD SMILES>
CC(C)[C@H](NC(=O)[C@@H]1CSSC[C@H](NC(=O)[C@H](C)N)C(=O)N[C@@H](Cc2ccccc2)C(=O)N2Cc3ccccc3C[C@@H]2C(=O)N[C@@H](CCCCN)C(=O)N[C@@H](Cc2ccc(O)cc2)C(=O)N1)C(=O)O

>  <Emax>
128%

$$$$
>  <RECORD SMILES>
CC(C)[C@H](NC(=O)[C@@H]1CSSC[C@H](NC(=O)[C@H](C)N)C(=O)N[C@@H](Cc2ccccc2)C(=O)N[C@@H]2Cc3c([nH]c4ccccc34)CN(C2=O)[C@@H](CCCCN)C(=O)N[C@@H](Cc2ccc(O)cc2)C(=O)N1)C(=O)O

>  <Emax>
148%

$$$$

Quick check: Emax of CC(C)[C@H](NC(=O)[C@@H]1CSSC[C@H](NC(=O)[C@H](C)N)C(=O)N[C@@H](Cc2ccccc2)C(=O)N[C@@H](Cc2c[nH]c3ccccc23)C(=O)N[C@@H](CCCCN)C(=O)N[C@@H](Cc2ccc(O)cc2)C(=O)N1)C(=O)O ? 100%

Quick check: Emax of CC(C)[C@H](NC(=O)[C@@H]1CSSC[C@H](NC(=O)[C@H](C)N)C(=O)N[C@@H](Cc2ccccc2)C(=O)N[C@@H](Cc2cccc3ccccc23)C(=O)N[C@@H](CCCCN)C(=O)N[C@@H](Cc2ccc(O)cc2)C(=O)N1)C(=O)O ? 86%

Quick check: Emax of CC(C)[C@H](NC(=O)[C@@H]1CSSC[C@H](NC(=O)[C@H](C)N)C(=O)N[C@@H](Cc2ccccc2)C(=O)N[C@H](c2ccccc2)C(=O)N[C@@H](CCCCN)C(=O)N[C@@H](Cc2ccc(O)cc2)C(=O)N1)C(=O)O ? 116%

Quick check: Emax of CC(C)[C@H](NC(=O)[C@@H]1CSSC[C@H](NC(=O)[C@H](C)N)C(=O)N[C@@H](Cc2ccccc2)C(=O)N2Cc3[nH]c4ccccc4c3C[C@H]2C(=O)N[C@@H](CCCCN)C(=O)N[C@@H](Cc2ccc(O)cc2)C(=O)N1)C(=O)O ? 139%

Quick check: Emax of CC(C)[C@H](NC(=O)[C@@H]1CSSC[C@H](NC(=O)[C@H](C)N)C(=O)N[C@@H](Cc2ccccc2)C(=O)N2CCc3ccccc3[C@H]2C(=O)N[C@@H](CCCN)C(=O)N[C@@H](Cc2ccc(O)cc2)C(=O)N1)C(=O)O ? inactive

* * *

Listed here are compounds together with their documented IC50.
EXPERIMENTAL TARGET: Urotensin-2 receptor (Homo sapiens, UniProt Q9UKP6)
Sequence (Q9UKP6 whole entry): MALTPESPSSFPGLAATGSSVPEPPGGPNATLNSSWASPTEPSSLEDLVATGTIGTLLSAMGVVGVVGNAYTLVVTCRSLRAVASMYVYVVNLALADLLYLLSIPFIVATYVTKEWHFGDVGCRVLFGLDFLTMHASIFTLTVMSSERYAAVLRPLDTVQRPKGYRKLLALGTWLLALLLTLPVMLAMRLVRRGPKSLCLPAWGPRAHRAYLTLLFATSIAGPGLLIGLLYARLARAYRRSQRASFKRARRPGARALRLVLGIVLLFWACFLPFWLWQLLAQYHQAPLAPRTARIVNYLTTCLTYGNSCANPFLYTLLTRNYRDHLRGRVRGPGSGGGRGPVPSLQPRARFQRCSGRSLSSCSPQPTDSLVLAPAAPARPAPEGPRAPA
PROTOCOL DESCRIPTION: Displacement of [125I]-Urotensin-2 from human GPR14 expressed in CHO cells after 90 mins by gamma counting analysis
Format: cell-based
CONDITION CONTEXT: read-out: IC50
Field format: number, assumed nM, no unit text.

>  <RECORD SMILES>
CC(C)[C@H](NC(=O)[C@@H]1CSSC[C@H](NC(=O)[C@H](C)N)C(=O)N[C@@H](Cc2ccccc2)C(=O)N[C@H]2Cc3c([nH]c4ccccc34)CN(C2=O)[C@@H](CCCCN)C(=O)N[C@@H](Cc2ccc(O)cc2)C(=O)N1)C(=O)O

>  <ASSAY READOUT>
IC50

>  <RECORDED RESULT>
808

$$$$
>  <RECORD SMILES>
CC(C)[C@H](NC(=O)[C@@H]1CSSC[C@H](NC(=O)[C@H](C)N)C(=O)N[C@@H](Cc2ccccc2)C(=O)N2CCc3ccccc3[C@H]2C(=O)N[C@@H](CCCCN)C(=O)N[C@@H](Cc2ccc(O)cc2)C(=O)N1)C(=O)O

>  <ASSAY READOUT>
IC50

>  <RECORDED RESULT>
10

$$$$
>  <RECORD SMILES>
CC(C)[C@H](NC(=O)[C@@H]1CSSC[C@H](NC(=O)[C@H](C)N)C(=O)N[C@@H](Cc2ccccc2)C(=O)N2CCc3ccccc3[C@@H]2C(=O)N[C@@H](CCCCN)C(=O)N[C@@H](Cc2ccc(O)cc2)C(=O)N1)C(=O)O

>  <ASSAY READOUT>
IC50

>  <RECORDED RESULT>
21

$$$$

Query compound follows.
Quick check: IC50 of CC(C)[C@H](NC(=O)[C@@H]1CSSC[C@H](NC(=O)[C@H](C)N)C(=O)N[C@@H](Cc2ccccc2)C(=O)N[C@@H]2Cc3c([nH]c4ccccc34)CN(C2=O)[C@@H](CCCCN)C(=O)N[C@@H](Cc2ccc(O)cc2)C(=O)N1)C(=O)O ? 60

* * *

EXPERIMENTAL TARGET: Urotensin-2 receptor (Homo sapiens)
PROTOCOL DESCRIPTION: Displacement of [125I]-Urotensin-2 from human GPR14 expressed in CHO cells after 90 mins by gamma counting analysis
Assay type: cell-based
CONDITION CONTEXT: read-out: pIC50 (converted)
ASSAY READOUT: IC50

Solved cases below.
>  <RECORD SMILES>
CC(C)[C@H](NC(=O)[C@@H]1CSSC[C@H](NC(=O)[C@H](C)N)C(=O)N[C@@H](Cc2ccccc2)C(=O)N[C@@H](C(C)(C)C)C(=O)N[C@@H](CCCCN)C(=O)N[C@@H](Cc2ccc(O)cc2)C(=O)N1)C(=O)O

>  <EXPERIMENTAL TARGET>
Urotensin-2 receptor (Homo sapiens)

>  <IC50>
> 10000 nM

$$$$
>  <RECORD SMILES>
CC(C)[C@H](NC(=O)[C@@H]1CSSC[C@H](NC(=O)[C@H](C)N)C(=O)N[C@@H](Cc2ccccc2)C(=O)N[C@H](c2ccccc2)C(=O)N[C@@H](CCCCN)C(=O)N[C@@H](Cc2ccc(O)cc2)C(=O)N1)C(=O)O

>  <EXPERIMENTAL TARGET>
Urotensin-2 receptor (Homo sapiens)

>  <IC50>
27.5 nM

$$$$
>  <RECORD SMILES>
CC(C)[C@H](NC(=O)[C@@H]1CSSC[C@H](NC(=O)[C@H](C)N)C(=O)N[C@@H](Cc2ccccc2)C(=O)N[C@H](C(C)(C)C)C(=O)N[C@@H](CCCCN)C(=O)N[C@@H](Cc2ccc(O)cc2)C(=O)N1)C(=O)O

>  <EXPERIMENTAL TARGET>
Urotensin-2 receptor (Homo sapiens)

>  <IC50>
> 1000 nM

$$$$
>  <RECORD SMILES>
CC(C)[C@H](NC(=O)[C@@H]1CSSC[C@H](NC(=O)[C@H](C)N)C(=O)N[C@@H](Cc2ccccc2)C(=O)N[C@@H](C(c2ccccc2)c2ccccc2)C(=O)N[C@@H](CCCCN)C(=O)N[C@@H](Cc2ccc(O)cc2)C(=O)N1)C(=O)O

>  <EXPERIMENTAL TARGET>
Urotensin-2 receptor (Homo sapiens)

>  <IC50>
282 nM

$$$$
>  <RECORD SMILES>
CC(C)[C@H](NC(=O)[C@@H]1CSSC[C@H](NC(=O)[C@H](C)N)C(=O)N[C@@H](Cc2ccccc2)C(=O)N2Cc3[nH]c4ccccc4c3C[C@H]2C(=O)N[C@@H](CCCN)C(=O)N[C@@H](Cc2ccc(O)cc2)C(=O)N1)C(=O)O

>  <EXPERIMENTAL TARGET>
Urotensin-2 receptor (Homo sapiens)

>  <IC50>
> 10000 nM

$$$$

Provide value of IC50 for this record tested with Urotensin-2 receptor (Homo sapiens): CC(C)[C@H](NC(=O)[C@@H]1CSSC[C@H](NC(=O)[C@H](C)N)C(=O)N[C@@H](Cc2ccccc2)C(=O)N2Cc3ccccc3C[C@H]2C(=O)N[C@@H](CCCCN)C(=O)N[C@@H](Cc2ccc(O)cc2)C(=O)N1)C(=O)O > 10000 nM
